Assign MIC to each entry below.
Tested on: Haemophilus influenzae 76
protocol-summary: MIC, standard agar-dilution assay
Type: cell-based
Respond numerically; units are µg/mL and should not be typed.

Which value of MIC has been reported for CCCCCCCCNC1(C)CC(OC2C(Oc3c4cc5cc3Oc3ccc(cc3Cl)C(O)C3NC(=O)C(NC(=O)C5NC(=O)C(CC(N)=O)NC(=O)C(NC(=O)C(CC(C)C)NC)C(O)c5ccc(c(Cl)c5)O4)c4ccc(O)c(c4)-c4c(O)cc(O)cc4C(C(=O)O)NC3=O)OC(CO)C(O)C2O)OC(C)C1O (stereo not drawn) in the records?
32

Which value of MIC has been reported for CCCCCCNC1(C)CC(OC2C(Oc3c4cc5cc3Oc3ccc(cc3Cl)C(O)C3NC(=O)C(NC(=O)C5NC(=O)C(CC(N)=O)NC(=O)C(NC(=O)C(CC(C)C)NC)C(O)c5ccc(c(Cl)c5)O4)c4ccc(O)c(c4)-c4c(O)cc(O)cc4C(C(=O)O)NC3=O)OC(CO)C(O)C2O)OC(C)C1O (stereo not drawn) in the records?
128

Which value of MIC has been reported for CNC(CC(C)C)C(=O)NC1C(=O)NC(CC(N)=O)C(=O)NC2C(=O)NC3C(=O)NC(C(=O)NC(C(=O)O)c4cc(O)cc(O)c4-c4cc3ccc4O)C(O)c3ccc(c(Cl)c3)Oc3cc2cc(c3OC2OC(CO)C(O)C(O)C2OC2CC(C)(NCc3ccc(Br)cc3)C(O)C(C)O2)Oc2ccc(cc2Cl)C1O (stereo not drawn) in the records?
64

Which value of MIC has been reported for CCCCNC1(C)CC(OC2C(Oc3c4cc5cc3Oc3ccc(cc3Cl)C(O)C(NC(=O)C(CC(C)C)N(C)CCCC)C(=O)NC(CC(N)=O)C(=O)NC5C(=O)NC3C(=O)NC(C(=O)NC(C(=O)O)c5cc(O)cc(O)c5-c5cc3ccc5O)C(O)c3ccc(c(Cl)c3)O4)OC(CO)C(O)C2O)OC(C)C1O (stereo not drawn) in the records?
128

Which value of MIC has been reported for CCCCCNC1(C)CC(OC2C(Oc3c4cc5cc3Oc3ccc(cc3Cl)C(O)C3NC(=O)C(NC(=O)C5NC(=O)C(CC(N)=O)NC(=O)C(NC(=O)C(CC(C)C)NC)C(O)c5ccc(c(Cl)c5)O4)c4ccc(O)c(c4)-c4c(O)cc(O)cc4C(C(=O)O)NC3=O)OC(CO)C(O)C2O)OC(C)C1O (stereo not drawn) in the records?
128

Which value of MIC has been reported for CCCCCCCCCNC1(C)CC(OC2C(Oc3c4cc5cc3Oc3ccc(cc3Cl)C(O)C3NC(=O)C(NC(=O)C5NC(=O)C(CC(N)=O)NC(=O)C(NC(=O)C(CC(C)C)NC)C(O)c5ccc(c(Cl)c5)O4)c4ccc(O)c(c4)-c4c(O)cc(O)cc4C(C(=O)O)NC3=O)OC(CO)C(O)C2O)OC(C)C1O (stereo not drawn) in the records?
64

Which value of MIC has been reported for CNC(CC(C)C)C(=O)NC1C(=O)NC(CC(N)=O)C(=O)NC2C(=O)NC3C(=O)NC(C(=O)NC(C(=O)O)c4cc(O)cc(O)c4-c4cc3ccc4O)C(O)c3ccc(c(Cl)c3)Oc3cc2cc(c3OC2OC(CO)C(O)C(O)C2OC2CC(C)(NCc3ccc(O)cc3)C(O)C(C)O2)Oc2ccc(cc2Cl)C1O (stereo not drawn) [Example 105, N^van --( -p-hydroxybenzyl)vancomycin] in the records?
64

Which value of MIC has been reported for CCCNC1(C)CC(OC2C(Oc3c4cc5cc3Oc3ccc(cc3Cl)C(O)C3NC(=O)C(NC(=O)C5NC(=O)C(CC(N)=O)NC(=O)C(NC(=O)C(CC(C)C)NC)C(O)c5ccc(c(Cl)c5)O4)c4ccc(O)c(c4)-c4c(O)cc(O)cc4C(C(=O)O)NC3=O)OC(CO)C(O)C2O)OC(C)C1O (stereo not drawn) in the records?
128

Which value of MIC has been reported for CCCCCCCNC1(C)CC(OC2C(Oc3c4cc5cc3Oc3ccc(cc3Cl)C(O)C3NC(=O)C(NC(=O)C5NC(=O)C(CC(N)=O)NC(=O)C(NC(=O)C(CC(C)C)NC)C(O)c5ccc(c(Cl)c5)O4)c4ccc(O)c(c4)-c4c(O)cc(O)cc4C(C(=O)O)NC3=O)OC(CO)C(O)C2O)OC(C)C1O (stereo not drawn) in the records?
128

---

Test system: Klebsiella pneumoniae X68
protocol-summary: MIC, standard agar-dilution assay
Type: cell-based
Assign MIC to each entry below.

Which value of MIC has been reported for CCCCNC1(C)CC(OC2C(Oc3c4cc5cc3Oc3ccc(cc3Cl)C(O)C(NC(=O)C(CC(C)C)N(C)CCCC)C(=O)NC(CC(N)=O)C(=O)NC5C(=O)NC3C(=O)NC(C(=O)NC(C(=O)O)c5cc(O)cc(O)c5-c5cc3ccc5O)C(O)c3ccc(c(Cl)c3)O4)OC(CO)C(O)C2O)OC(C)C1O (stereo not drawn) in the records?
> 128 µg/mL

Which value of MIC has been reported for CCCNC1(C)CC(OC2C(Oc3c4cc5cc3Oc3ccc(cc3Cl)C(O)C3NC(=O)C(NC(=O)C5NC(=O)C(CC(N)=O)NC(=O)C(NC(=O)C(CC(C)C)NC)C(O)c5ccc(c(Cl)c5)O4)c4ccc(O)c(c4)-c4c(O)cc(O)cc4C(C(=O)O)NC3=O)OC(CO)C(O)C2O)OC(C)C1O (stereo not drawn) in the records?
> 128 µg/mL

Which value of MIC has been reported for CNC(CC(C)C)C(=O)NC1C(=O)NC(CC(N)=O)C(=O)NC2C(=O)NC3C(=O)NC(C(=O)NC(C(=O)O)c4cc(O)cc(O)c4-c4cc3ccc4O)C(O)c3ccc(c(Cl)c3)Oc3cc2cc(c3OC2OC(CO)C(O)C(O)C2OC2CC(C)(NCc3ccc(O)cc3)C(O)C(C)O2)Oc2ccc(cc2Cl)C1O (stereo not drawn) [Example 105, N^van --( -p-hydroxybenzyl)vancomycin] in the records?
> 128 µg/mL

---

Tested on: Staphylococcus aureus X400
protocol-summary: MIC, standard agar-dilution assay
Assay type: cell-based
Assign MIC to each entry below.
Answers without a unit are incomplete; give the number and then its unit.

Which value of MIC has been reported for CCCCCCCNC1(C)CC(OC2C(Oc3c4cc5cc3Oc3ccc(cc3Cl)C(O)C3NC(=O)C(NC(=O)C5NC(=O)C(CC(N)=O)NC(=O)C(NC(=O)C(CC(C)C)NC)C(O)c5ccc(c(Cl)c5)O4)c4ccc(O)c(c4)-c4c(O)cc(O)cc4C(C(=O)O)NC3=O)OC(CO)C(O)C2O)OC(C)C1O (centres unmarked) in the records?
0.5 µg/mL

Which value of MIC has been reported for CCCCCCCCCNC1(C)CC(OC2C(Oc3c4cc5cc3Oc3ccc(cc3Cl)C(O)C(NC(=O)C(CC(C)C)N(C)CCCCCCCCC)C(=O)NC(CC(N)=O)C(=O)NC5C(=O)NC3C(=O)NC(C(=O)NC(C(=O)O)c5cc(O)cc(O)c5-c5cc3ccc5O)C(O)c3ccc(c(Cl)c3)O4)OC(CO)C(O)C2O)OC(C)C1O (centres unmarked) in the records?
1 µg/mL

---

Tested on: Staphylococcus aureus V41
protocol-summary: MIC, standard agar-dilution assay
Assay type: cell-based
result-type: MIC (µg/mL)
Respond numerically; units are µg/mL and should not be typed.

Which value of MIC has been reported for CCCCCCCCCCN(C)C(CC(C)C)C(=O)NC1C(=O)NC(CC(N)=O)C(=O)NC2C(=O)NC3C(=O)NC(C(=O)NC(C(=O)O)c4cc(O)cc(O)c4-c4cc3ccc4O)C(O)c3ccc(c(Cl)c3)Oc3cc2cc(c3OC2OC(CO)C(O)C(O)C2OC2CC(C)(N)C(O)C(C)O2)Oc2ccc(cc2Cl)C1O (stereo not drawn) in the records?
0.5

Which value of MIC has been reported for CCCCCCCCc1ccc(CNC2(C)CC(OC3C(Oc4c5cc6cc4Oc4ccc(cc4Cl)C(O)C4NC(=O)C(NC(=O)C6NC(=O)C(CC(N)=O)NC(=O)C(NC(=O)C(CC(C)C)NC)C(O)c6ccc(c(Cl)c6)O5)c5ccc(O)c(c5)-c5c(O)cc(O)cc5C(C(=O)O)NC4=O)OC(CO)C(O)C3O)OC(C)C2O)cc1 (stereo not drawn) in the records?
1

Which value of MIC has been reported for CCNC1(C)CC(OC2C(Oc3c4cc5cc3Oc3ccc(cc3Cl)C(O)C(NC(=O)C(CC(C)C)N(C)CC)C(=O)NC(CC(N)=O)C(=O)NC5C(=O)NC3C(=O)NC(C(=O)NC(C(=O)O)c5cc(O)cc(O)c5-c5cc3ccc5O)C(O)c3ccc(c(Cl)c3)O4)OC(CO)C(O)C2O)OC(C)C1O (stereo not drawn) in the records?
1

---

Test system: Klebsiella pneumoniae X68
protocol-summary: MIC, standard agar-dilution assay
Format: cell-based
result-type: MIC

Which value of MIC has been reported for CCCNC1(C)CC(OC2C(Oc3c4cc5cc3Oc3ccc(cc3Cl)C(O)C(NC(=O)C(CC(C)C)N(C)CCC)C(=O)NC(CC(N)=O)C(=O)NC5C(=O)NC3C(=O)NC(C(=O)NC(C(=O)O)c5cc(O)cc(O)c5-c5cc3ccc5O)C(O)c3ccc(c(Cl)c3)O4)OC(CO)C(O)C2O)OC(C)C1O (centres unmarked) [Compound 22, N^van, N^leu --di(n-propyl)vancomycin] in the records?
> 128 µg/mL

Which value of MIC has been reported for CCCCc1ccc(CNC2(C)CC(OC3C(Oc4c5cc6cc4Oc4ccc(cc4Cl)C(O)C4NC(=O)C(NC(=O)C6NC(=O)C(CC(N)=O)NC(=O)C(NC(=O)C(CC(C)C)NC)C(O)c6ccc(c(Cl)c6)O5)c5ccc(O)c(c5)-c5c(O)cc(O)cc5C(C(=O)O)NC4=O)OC(CO)C(O)C3O)OC(C)C2O)cc1 (centres unmarked) [Example 81, N^van --( -p-butylbenzyl)vancomycin] in the records?
> 128 µg/mL
